# reported TGI; entries follow
# Test system: OVCAR-3 ovarian
# Run description: NCI tumour cell line growth inhibition, 48 h
Reported metric: TGI

• O=C(Cn1c2ccccc2c2ccncc21)N/N=C\c1ccc2ccccc2c1 = 36.5 µM
• O=C1c2ccn(CCCCN(CCO)CCO)c2C(=O)c2c1c(O)c1ccccc1c2O = > 100 µM
• C/C([O-])=C(/c1nc(-c2ccc([N+](=O)[O-])o2)no1)[n+]1cc(C)ccc1C = 37.7 µM
• CC(C)=CCc1cc(C2COc3cc4c(c(O)c3C2=O)C=CC(C)(C)O4)c(O)cc1O (configuration not stated) = 27.3 µM
• O=C(Nc1ccc(S(=O)(=O)Nc2ncccn2)cc1)c1c2ccccc2nc2ccccc12 = > 100 µM
• CCOC(=O)C1Oc2ccc([N+](=O)[O-])cc2C1(C)O (configuration not stated) = > 100 µM
• Cc1cc(C#N)c(Nc2ccccc2[N+](=O)[O-])s1 = 71.5 µM
• CCOC(=O)Oc1ccc2c(c1)c(=O)c1c(NCCCN(CC)CC)ccc3nnn2c31 = 20 µM
• COc1ccc(/C=N\O[Si](C)(C)C(C)(C)C)cc1O[Si](C)(C)C(C)(C)C = 31 µM
• CCc1c2c(nc3ccc(OCc4ccc(B5OC(C)(C)C(C)(C)O5)cc4)cc13)-c1cc3c(c(=O)n1C2)COC(=O)[C@]3(O)CC = > 100 µM
• CC1(C)N=C(Oc2ccccc2)n2nccc2N1 = > 100 µM
• NCCC1([N+](=O)[O-])CCNCC1 = > 100 µM
• COC1C(OC(N)=O)C(O)C(Oc2ccc3c(O)c(NC(=O)c4ccc(O)c(CC=C(C)C)c4)c(=O)oc3c2C)OC1(C)C (configuration not stated) = > 100 µM
• CN(C)N=Nc1nn(C(=O)Nc2ccc(Cc3ccccc3)cc2)c2ccccc12 = > 100 µM
• O=C(O)CN=c1c2ccccc2n(O)c2ccccc12 = > 100 µM
• CCCOP(=S)(N1CC1)N1CC1 = > 100 µM
• COc1nc(C)nc2c1ncn2Cc1ccccc1 = > 100 µM
• O=C(O)CCc1nc2cc3ccccc3cc2[nH]c1=O = > 100 µM
• C=C1C(=O)O[C@H]2[C@H]1CC/C(CNC(=O)/C=C/c1ccc(Cl)cc1Cl)=C\CC[C@@]1(C)O[C@@H]21 = 1.57 µM
• O=[N+]([O-])c1cc2c(ccc3occc32)o1 = 15.8 µM
• CC1CC(=O)c2c(ccc3c2C(=O)c2cccc(O)c2C3=O)C1 (configuration not stated) = 16.5 µM
• Cn1c2ccccc2c2[nH]c3ccccc3c(=O)c21 = > 100 µM
• COc1ccc(CN=C(N)N=C(N)N)cc1OC = > 1000 µM
• C#CC(O)Cc1ccc(OC)c2occc12 (configuration not stated) = > 100 µM
• CC1=C(C(=O)NC(C)(C)C)CC(C(=O)NC(C)(C)C)C(C)N1 (configuration not stated) = > 100 µM
• Cc1ccc([N+](=O)[O-])c2c(NCCC[N+](C)(C)[O-])ccnc12 = > 100 µM
• COc1cc(NC(=O)c2cc(O)c(C/C=C(\C)CCC=C(C)C)c(O)c2)cc2c1O[C@]1(C)CC[C@@H](O)C(C)(C)[C@H]1C2 = 5.49 µM
• COc1ccc(C2C(Cl)C(=O)N2NC(=O)c2ccccc2O)cc1OC (configuration not stated) = > 100 µM
• COc1ccc(/C=C(\Cl)c2ccc(OC)cc2)cc1 = > 100 µM
• COC1OC(C(C)O)C2OC(C)(C)OC12 (configuration not stated) = > 100 µM
• CNC(=O)c1cncc(/C=C/c2c(Cl)cccc2Cl)c1 = > 25 µM
• Oc1ccc(O)c2c1C1(Cl)C(Cl)=C(Cl)C2(Cl)C1(Cl)Cl = 5.17 µM
